biological target: human PRS protein (His-Avi-hEPRS (998-1512)) (Homo sapiens); construct: to construct His-Avi-hEPRS (998-1512) expression plasmid; His tag (N); Avi tag (N); TEV cleavage site (ENLYFQG, then S; inferred from the forward primer hEPRS-TEV-NheF) (N); made in house; host or cells: E. coli BL21(DE3); assay: PRS inhibitory activity ([32P]pyrophosphate exchange enzyme assay); type: biochemical; settings: 300 nM test compound; read-out: inhibitory rate (%) of PRS
Sequence (P07814 998-1512 limits assumed): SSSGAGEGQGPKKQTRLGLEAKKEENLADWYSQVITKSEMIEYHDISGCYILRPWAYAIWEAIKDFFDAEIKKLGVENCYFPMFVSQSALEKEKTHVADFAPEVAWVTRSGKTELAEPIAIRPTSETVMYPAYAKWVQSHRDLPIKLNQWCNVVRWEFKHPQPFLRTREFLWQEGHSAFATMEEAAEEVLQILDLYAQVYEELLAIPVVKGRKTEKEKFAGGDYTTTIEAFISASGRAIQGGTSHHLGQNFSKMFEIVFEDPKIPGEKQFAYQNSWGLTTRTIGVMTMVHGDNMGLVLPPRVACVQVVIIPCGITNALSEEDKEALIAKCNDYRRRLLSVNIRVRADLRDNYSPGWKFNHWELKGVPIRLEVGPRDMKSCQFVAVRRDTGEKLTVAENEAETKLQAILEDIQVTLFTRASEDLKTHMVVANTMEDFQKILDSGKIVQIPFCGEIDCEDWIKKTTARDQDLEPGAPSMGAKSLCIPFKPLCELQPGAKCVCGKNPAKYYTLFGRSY
OBSERVED_PROPERTY: inhibition at 0.3 µM (%)

Known inhibition at 0.3 µM results, listed for orientation:
| COMPOUND | TARGET_DESC | inhibition at 0.3 µM / % |
| --- | --- | --- |
| Cn1cc(-c2cc(F)cc(CNC(=O)c3ncnc4nc(C5CCCC5)[nH]c34)c2)cn1 [Example 2] | human PRS protein (His-Avi-hEPRS (998-1512)) (Homo sapiens) | 101 |
| Cn1cc(-c2cc(F)cc(CNC(=O)c3nccc4nc(C5CCCC5)n(C5CC5)c34)c2)cn1 [Example 108] | human PRS protein (His-Avi-hEPRS (998-1512)) (Homo sapiens) | 102 |
| Cn1cc(-c2cc(C#N)cc(CNC(=O)c3ncnc4nc(C5CCCC5)[nH]c34)c2)cn1 [Example 16] | human PRS protein (His-Avi-hEPRS (998-1512)) (Homo sapiens) | 102 |

A = Cc1cc(-c2cc(F)cc(CNC(=O)c3cc(N4CC[C@@](C#N)(C5CC5)C4=O)cc(C)n3)c2)ccn1 [Example 209]
B = Cn1cc(-c2cc(F)cc(CNC(=O)c3cc(N4CC[C@@](C#N)(C5CC5)C4=O)cc(C4CC4)n3)c2)cn1 [Example 225]
Task: When the recorded inhibition at 0.3 µM values are compared, which is smaller: that of A or that of B ? Lab note: record the label of whichever item you select.
Result: B

* * *

Target: human PRS protein (His-Avi-hEPRS (998-1512)) (Homo sapiens)
Construct: to construct His-Avi-hEPRS (998-1512) expression plasmid; His tag (N); Avi tag (N); TEV cleavage site (ENLYFQG, then S; inferred from the forward primer hEPRS-TEV-NheF) (N); made in house; host or cells: E. coli BL21(DE3)
Assay: PRS inhibitory activity ([32P]pyrophosphate exchange enzyme assay)
Type: biochemical
Settings: 300 nM test compound; read-out: inhibitory rate (%) of PRS
Method: The PRS inhibitory activity of the compounds of the present invention was evaluated by the following method. […] Recombinant human PRS protein was prepared by transforming the His-Avi-hEPRS (998-1512) expression plasmid prepared above into ECOS Competent E. coli BL21(DE3) (NIPPON GENE CO., LTD.). […] The protein concentration was measured using BCA Protein Assay Kit (PIERCE) and BSA as the standard. […]
OBSERVED_PROPERTY: inhibition at 0.3 µM (%)

| MOLECULE | UNIT_SPEC | inhibition at 0.3 µM |
| --- | --- | --- |
| Cn1cc(-c2cc(F)cc(CNC(=O)c3ncc(F)c4nc(C5CCCC5)n(C)c34)c2)cn1 [Example 113] | % | 101 |
| Cn1ncc2cccc(CNC(=O)c3ncnc4nc(C5CCCC5)n(C)c34)c21 [Example 21] | % | 92 |
| Cn1cc(-c2cc(F)cc(CNC(=O)c3nccc4nc(C5CCCC5)n(CC5CC5)c34)c2)cn1 [Example 114] | % | 101 |
| Cn1cc(-c2cc(F)c(F)c(CNC(=O)c3ncnc4nc(C5CCCC5)n(C)c34)c2)cn1 [Example 5] | % | 102 |
